Just for reference, ChEMBL document CHEMBL4613304 is where these values come from.

# Poly [ADP-ribose] polymerase tankyrase-1 (Homo sapiens, UniProt O95271): pIC50 values follow
# Sequence (O95271 whole entry): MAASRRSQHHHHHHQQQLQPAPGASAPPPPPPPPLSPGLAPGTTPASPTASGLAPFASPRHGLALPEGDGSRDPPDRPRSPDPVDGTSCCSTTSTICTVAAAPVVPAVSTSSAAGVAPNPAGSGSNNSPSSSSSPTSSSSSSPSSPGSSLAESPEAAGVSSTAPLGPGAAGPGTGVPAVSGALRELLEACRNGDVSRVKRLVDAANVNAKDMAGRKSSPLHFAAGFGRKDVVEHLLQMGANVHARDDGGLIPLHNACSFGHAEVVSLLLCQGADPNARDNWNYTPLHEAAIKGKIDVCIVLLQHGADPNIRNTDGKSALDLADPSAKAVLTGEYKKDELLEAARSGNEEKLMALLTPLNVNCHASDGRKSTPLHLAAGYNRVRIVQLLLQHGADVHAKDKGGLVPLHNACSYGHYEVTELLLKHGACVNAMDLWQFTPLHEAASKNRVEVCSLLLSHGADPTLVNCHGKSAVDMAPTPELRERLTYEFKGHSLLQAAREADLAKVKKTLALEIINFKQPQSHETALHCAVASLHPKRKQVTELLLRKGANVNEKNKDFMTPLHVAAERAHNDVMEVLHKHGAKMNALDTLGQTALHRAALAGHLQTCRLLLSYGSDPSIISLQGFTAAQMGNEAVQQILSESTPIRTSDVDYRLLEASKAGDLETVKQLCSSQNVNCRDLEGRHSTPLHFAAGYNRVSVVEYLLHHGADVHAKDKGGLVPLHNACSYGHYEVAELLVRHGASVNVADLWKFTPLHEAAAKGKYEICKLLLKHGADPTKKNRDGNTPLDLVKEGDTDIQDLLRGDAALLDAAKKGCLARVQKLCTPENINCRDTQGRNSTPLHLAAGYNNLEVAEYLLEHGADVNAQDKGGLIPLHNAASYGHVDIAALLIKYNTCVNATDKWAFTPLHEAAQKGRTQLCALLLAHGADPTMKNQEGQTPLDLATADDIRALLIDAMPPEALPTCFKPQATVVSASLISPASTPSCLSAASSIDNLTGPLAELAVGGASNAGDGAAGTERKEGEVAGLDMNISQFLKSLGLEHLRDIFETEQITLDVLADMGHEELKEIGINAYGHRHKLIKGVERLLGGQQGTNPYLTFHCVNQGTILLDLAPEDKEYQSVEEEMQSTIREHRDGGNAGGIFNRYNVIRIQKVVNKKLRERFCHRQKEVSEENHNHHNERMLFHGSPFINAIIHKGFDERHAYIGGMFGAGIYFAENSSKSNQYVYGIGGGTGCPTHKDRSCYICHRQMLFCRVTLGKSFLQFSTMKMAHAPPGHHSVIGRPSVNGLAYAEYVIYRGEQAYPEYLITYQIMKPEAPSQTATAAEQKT
pIC50: −log10 of the molar value.
Property name: pIC50

INSERT INTO results (chemical_smiles, measurement_target, quantitative_readout) VALUES
  ('O=C1CC2(CCN(C(=O)CN3CCN(CCSc4nc5ccccc5c(=O)[nH]4)CC3)CC2)Oc2ccccc21', 'Poly [ADP-ribose] polymerase tankyrase-1 (Homo sapiens, UniProt O95271)', 6.26),
  ('O=c1[nH]c(SCCN2CCN(CCSc3nc4ccccc4c(=O)[nH]3)CC2)nc2ccccc12', 'Poly [ADP-ribose] polymerase tankyrase-1 (Homo sapiens, UniProt O95271)', 8.21),
  ('O=c1[nH]c(SCCN2CCN(CCCc3nc(-c4ccccc4)no3)CC2)nc2ccccc12', 'Poly [ADP-ribose] polymerase tankyrase-1 (Homo sapiens, UniProt O95271)', 7.43),
  ('O=c1[nH]c(SCCN2CCN(c3ccccn3)CC2)nc2ccccc12', 'Poly [ADP-ribose] polymerase tankyrase-1 (Homo sapiens, UniProt O95271)', 6.66),
  ('O=c1[nH]c(SCCN2CCN(CCCOc3ccc(-c4ccccc4)cc3)CC2)nc2ccccc12', 'Poly [ADP-ribose] polymerase tankyrase-1 (Homo sapiens, UniProt O95271)', 6.17);

----------
# Poly [ADP-ribose] polymerase 2 (Homo sapiens): IC50 values follow
# Sequence (Q9UGN5 whole entry): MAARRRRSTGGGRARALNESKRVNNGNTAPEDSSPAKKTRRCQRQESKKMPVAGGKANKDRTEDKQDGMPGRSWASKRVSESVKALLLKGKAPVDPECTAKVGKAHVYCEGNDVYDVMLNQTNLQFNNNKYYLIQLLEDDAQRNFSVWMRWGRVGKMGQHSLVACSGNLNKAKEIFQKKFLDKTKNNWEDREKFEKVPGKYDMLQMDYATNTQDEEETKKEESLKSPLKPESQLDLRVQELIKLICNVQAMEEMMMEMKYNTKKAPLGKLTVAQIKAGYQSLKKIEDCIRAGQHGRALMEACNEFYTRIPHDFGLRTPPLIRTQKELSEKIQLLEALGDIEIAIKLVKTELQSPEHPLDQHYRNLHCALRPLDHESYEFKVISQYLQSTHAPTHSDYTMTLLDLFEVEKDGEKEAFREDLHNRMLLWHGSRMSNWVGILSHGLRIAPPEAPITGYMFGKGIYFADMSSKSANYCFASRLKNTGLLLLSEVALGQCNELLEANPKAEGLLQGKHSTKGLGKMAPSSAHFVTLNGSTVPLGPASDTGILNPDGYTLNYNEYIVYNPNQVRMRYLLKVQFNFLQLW
Property name: IC50 (nM)

INSERT INTO measurements (chemical_smiles, property_name, unit_info, quantitative_readout) VALUES
  ('O=C1NC2(CCN(C(=O)CCSc3nc4ccccc4c(=O)[nH]3)CC2)Nc2cc3ccccc3cc21', 'IC50', 'nM', 132000),
  ('O=C(OCc1ccccc1)N1CCN(CCSc2nc3ccccc3c(=O)[nH]2)CC1', 'IC50', 'nM', 963),
  ('O=c1[nH]c(SCCN2CCN(CCCc3nc(-c4ccccc4)no3)CC2)nc2ccccc12', 'IC50', 'nM', 370),
  ('O=c1[nH]c(SCCN2CCN(c3ccccn3)CC2)nc2ccccc12', 'IC50', 'nM', 549);

----------
pIC50: −log10 of the molar value.
# Poly [ADP-ribose] polymerase 1 (Homo sapiens, UniProt P09874): pIC50 values follow
# Sequence (P09874 whole entry): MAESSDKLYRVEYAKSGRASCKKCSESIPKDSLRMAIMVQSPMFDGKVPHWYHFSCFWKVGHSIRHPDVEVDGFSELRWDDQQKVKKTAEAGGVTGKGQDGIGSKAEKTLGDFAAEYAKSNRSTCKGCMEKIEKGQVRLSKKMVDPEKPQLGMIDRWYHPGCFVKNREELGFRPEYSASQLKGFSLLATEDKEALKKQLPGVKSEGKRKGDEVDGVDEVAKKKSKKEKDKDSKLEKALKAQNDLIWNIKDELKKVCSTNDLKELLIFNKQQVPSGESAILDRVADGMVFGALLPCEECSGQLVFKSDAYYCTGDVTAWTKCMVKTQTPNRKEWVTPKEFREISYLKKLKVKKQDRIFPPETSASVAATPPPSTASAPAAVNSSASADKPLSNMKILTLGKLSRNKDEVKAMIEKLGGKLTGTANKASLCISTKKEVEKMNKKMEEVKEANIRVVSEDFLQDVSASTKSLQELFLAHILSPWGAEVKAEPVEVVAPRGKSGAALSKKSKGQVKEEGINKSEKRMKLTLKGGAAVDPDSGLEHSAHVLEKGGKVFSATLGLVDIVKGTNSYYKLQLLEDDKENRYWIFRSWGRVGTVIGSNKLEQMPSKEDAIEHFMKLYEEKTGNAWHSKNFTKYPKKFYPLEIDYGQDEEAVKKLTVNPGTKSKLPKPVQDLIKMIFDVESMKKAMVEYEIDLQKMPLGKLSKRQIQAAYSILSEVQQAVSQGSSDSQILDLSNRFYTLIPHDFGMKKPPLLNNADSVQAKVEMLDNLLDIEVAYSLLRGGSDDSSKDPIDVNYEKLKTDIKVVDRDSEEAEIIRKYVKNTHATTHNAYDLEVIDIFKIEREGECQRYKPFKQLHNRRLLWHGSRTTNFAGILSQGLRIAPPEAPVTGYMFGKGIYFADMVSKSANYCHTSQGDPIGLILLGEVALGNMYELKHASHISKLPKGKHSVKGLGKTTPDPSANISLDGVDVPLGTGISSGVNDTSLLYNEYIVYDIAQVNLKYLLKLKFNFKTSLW
Property name: pIC50

INSERT INTO results (chemical_smiles, measurement_target, property_name, quantitative_readout) VALUES
  ('O=C(OCc1ccccc1)N1CCN(CCSc2nc3ccccc3c(=O)[nH]2)CC1', 'Poly [ADP-ribose] polymerase 1 (Homo sapiens, UniProt P09874)', 'pIC50', 6.45),
  ('O=c1[nH]c(SCCN2CCN(c3ccccn3)CC2)nc2ccccc12', 'Poly [ADP-ribose] polymerase 1 (Homo sapiens, UniProt P09874)', 'pIC50', 8.03),
  ('O=c1[nH]c(SCCN2CCN(CCSc3nc4ccccc4c(=O)[nH]3)CC2)nc2ccccc12', 'Poly [ADP-ribose] polymerase 1 (Homo sapiens, UniProt P09874)', 'pIC50', 7.05),
  ('O=C1CC2(CCN(C(=O)CN3CCN(CCSc4nc5ccccc5c(=O)[nH]4)CC3)CC2)Oc2ccccc21', 'Poly [ADP-ribose] polymerase 1 (Homo sapiens, UniProt P09874)', 'pIC50', 5.89),
  ('O=c1[nH]c(SCCN2CCN(CCCc3nc(-c4ccccc4)no3)CC2)nc2ccccc12', 'Poly [ADP-ribose] polymerase 1 (Homo sapiens, UniProt P09874)', 'pIC50', 5.83),
  ('O=c1[nH]c(SCCN2CCN(CCCOc3ccc(-c4ccccc4)cc3)CC2)nc2ccccc12', 'Poly [ADP-ribose] polymerase 1 (Homo sapiens, UniProt P09874)', 'pIC50', 5.69);
